binary diffusion coefficient for assorted compounds
# experiment: xn = mol fraction of the nth substance listed
# assay-context: 298.15 K; 101.3 kPa; Liquid; Taylor dispersion method; x2 = 0.1
reported-metric: binary diffusion coefficient (m2/s)

compound="Cc1ccccc1 [toluene] + CCO" unit_descriptor=m2/s observed=2.41e-09
compound="C1CCCCC1 [cyclohexane] + CCO" unit_descriptor=m2/s observed=7.7e-10
compound="ClC(Cl)(Cl)Cl [tetrachloromethane] + CCCCO" unit_descriptor=m2/s observed=5e-10
compound="ClC(Cl)(Cl)Cl [tetrachloromethane] + CCO" unit_descriptor=m2/s observed=8.2e-10
compound="CCCCCC [hexane] + CCO" unit_descriptor=m2/s observed=2.41e-09
compound="ClC(Cl)(Cl)Cl [tetrachloromethane] + CCCO" unit_descriptor=m2/s observed=6.1e-10
compound="C1CCCCC1 [cyclohexane] + CCCO" unit_descriptor=m2/s observed=6.6e-10
compound="Cc1ccccc1 [toluene] + CCCO" unit_descriptor=m2/s observed=1.81e-09
compound="CCCCCC [hexane] + CCCO" unit_descriptor=m2/s observed=2.17e-09
